Recorded IC50, one value per entry.
SUBJECT OF TEST: Casein kinase 1, delta tv1 (Sus scrofa, UniProt M3VH47)
Sequence (M3VH47 whole entry): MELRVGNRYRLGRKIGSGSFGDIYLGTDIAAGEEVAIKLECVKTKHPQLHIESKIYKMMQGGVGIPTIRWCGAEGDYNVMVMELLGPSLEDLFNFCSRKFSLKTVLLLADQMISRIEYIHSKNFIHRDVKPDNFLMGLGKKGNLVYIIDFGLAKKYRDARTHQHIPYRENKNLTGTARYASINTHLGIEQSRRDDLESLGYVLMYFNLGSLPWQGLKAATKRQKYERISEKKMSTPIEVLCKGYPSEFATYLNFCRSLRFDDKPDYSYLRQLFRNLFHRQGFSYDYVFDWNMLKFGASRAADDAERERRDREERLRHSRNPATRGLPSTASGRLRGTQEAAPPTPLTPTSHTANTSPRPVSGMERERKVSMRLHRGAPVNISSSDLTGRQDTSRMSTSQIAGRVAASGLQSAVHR
ASSAY EXPLANATION: Inhibition of Sus scrofa (pig) casein kinase 1delta/epsilon isolated from brain using RRKHAAIGpSAYSITA and [gamma33P]ATP as substrate after 30 min by scintillation counting
Express it in nM; write the number only.

Use the examples below as a reference point.
INSERT INTO results (query_smiles, measurement) VALUES
  ('CC(C)n1cnc2c(Nc3cccc(-c4ncccn4)c3)nc(Cl)nc21', 60),
  ('CC(C)n1cnc2c(Nc3cccc(-c4ncccn4)c3)nc(NC(C)(C)CO)nc21', 50);

# input for lookup
The compound listed as "CC(C)n1cnc2c(Nc3ccc(-c4cncnc4)cc3)nc(NC(CO)CO)nc21" shows IC50 equal to 640

----------
SUBJECT OF TEST: Casein kinase 1, delta tv1 (Sus scrofa)
ASSAY EXPLANATION: Inhibition of Sus scrofa (pig) casein kinase 1delta/epsilon isolated from brain using RRKHAAIGpSAYSITA and [gamma33P]ATP as substrate after 30 min by scintillation counting
Could you please mark True for values of IC50 below 0.3 µM and False for values at or above it?

Query string: Take the molecule "CC(C)n1cnc2c(Nc3cccc(-c4ncccn4)c3)nc(NC(CO)CO)nc21" and say whether its IC50 is less than 0.3 µM.
Result string: True

Query string: Quick check: IC50 of "CC(C)n1cnc2c(Nc3cccc(-c4cncnc4)c3)nc(Cl)nc21" under 0.3 µM?
Result string: False

Query string: I wonder whether "CC(C)n1cnc2c(Nc3cccc(-c4cncnc4)c3)nc(NC(C)(C)CO)nc21" has IC50 below 0.3 µM. Can you tell?
Result string: False

Query string: Is IC50 strictly under 0.3 µM for the entry "CC(C)n1cnc2c(Nc3ccc(-c4cncnc4)cc3)nc(Cl)nc21" ?
Result string: False

Query string: Check if IC50 falls below 0.3 µM for "CC(C)n1cnc2c(Nc3ccc(-c4cncnc4)cc3)nc(NC(C)(C)CO)nc21" .
Result string: False

----------
SUBJECT OF TEST: Cyclin-dependent kinase 2/cyclin A (Homo sapiens)
ASSAY EXPLANATION: Inhibition of human recombinant CDK2/cyclin A using histone H1 and [gamma33P]ATP as substrate after 30 min by scintillation counting
Catalogue of IC50 readings, one per entry.
# value in nM; strip the unit string

These solved cases illustrate the format of a correct answer.
INSERT INTO measurements (query_smiles, subject_of_test, measurement) VALUES
  ('CC(C)n1cnc2c(Nc3ccc(-c4cncnc4)cc3)nc(NC(C)(C)CO)nc21', 'Cyclin-dependent kinase 2/cyclin A (Homo sapiens)', 200),
  ('CC(C)n1cnc2c(Nc3ccc(-c4cncnc4)cc3)nc(NC(CO)CO)nc21', 'Cyclin-dependent kinase 2/cyclin A (Homo sapiens)', 330),
  ('CC(C)n1cnc2c(Nc3cccc(-c4ncccn4)c3)nc(Cl)nc21', 'Cyclin-dependent kinase 2/cyclin A (Homo sapiens)', 1900),
  ('CC(C)n1cnc2c(Nc3ccc(-c4cncnc4)cc3)nc(Cl)nc21', 'Cyclin-dependent kinase 2/cyclin A (Homo sapiens)', 1100);

Tested on Cyclin-dependent kinase 2/cyclin A (Homo sapiens): "CC(C)n1cnc2c(Nc3cccc(-c4cncnc4)c3)nc(NC(C)(C)CO)nc21" . Observed IC50: 110

These entries and their values trace back to ChEMBL document CHEMBL3045291.
